// data source = patent US20250320281A1

TARGET OF ASSAY: HIV-1 Env of isolate 93UG077 (pseudovirus) (HIV-1)
PROTOCOL NOTES: cell-based or functional assay
MEASURED ENDPOINT: IC50 (µg/mL), pseudovirus neutralization
Just the number in µg/mL, nothing appended.

Below, 3 binders whose answers are already recorded.
PGT-126 (5141_B17) (antibody, V domains shown) VH: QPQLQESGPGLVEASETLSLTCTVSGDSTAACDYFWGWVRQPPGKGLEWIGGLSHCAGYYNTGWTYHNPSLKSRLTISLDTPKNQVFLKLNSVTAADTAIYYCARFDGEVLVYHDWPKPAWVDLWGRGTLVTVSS VL: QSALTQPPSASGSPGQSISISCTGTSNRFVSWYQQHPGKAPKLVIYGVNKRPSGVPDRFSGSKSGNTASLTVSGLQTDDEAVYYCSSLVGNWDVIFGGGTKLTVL | 0.02
PGT-123 (4858_P08) (antibody, V domains shown) VH: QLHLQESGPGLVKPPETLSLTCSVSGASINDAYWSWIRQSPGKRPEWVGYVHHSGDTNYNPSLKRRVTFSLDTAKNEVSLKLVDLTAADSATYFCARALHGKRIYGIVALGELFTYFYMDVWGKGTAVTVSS VL: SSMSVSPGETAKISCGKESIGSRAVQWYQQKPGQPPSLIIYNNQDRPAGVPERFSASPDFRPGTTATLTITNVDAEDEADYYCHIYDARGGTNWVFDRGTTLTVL | 0.028
PGT-127 (5145_B14) (antibody, V domains shown) VH: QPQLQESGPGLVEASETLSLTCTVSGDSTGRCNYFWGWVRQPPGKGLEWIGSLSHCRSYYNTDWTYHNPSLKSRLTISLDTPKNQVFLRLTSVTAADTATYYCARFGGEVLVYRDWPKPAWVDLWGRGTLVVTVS VL: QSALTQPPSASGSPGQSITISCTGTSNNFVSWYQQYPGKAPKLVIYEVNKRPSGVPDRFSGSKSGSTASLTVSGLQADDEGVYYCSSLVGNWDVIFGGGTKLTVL | 0.055

// moving on: another record for IC50 (µg/mL), pseudovirus neutralization
Any idea what IC50 (µg/mL), pseudovirus neutralization was measured for PGT-125 (5123_A06) (antibody, V domains shown) VH: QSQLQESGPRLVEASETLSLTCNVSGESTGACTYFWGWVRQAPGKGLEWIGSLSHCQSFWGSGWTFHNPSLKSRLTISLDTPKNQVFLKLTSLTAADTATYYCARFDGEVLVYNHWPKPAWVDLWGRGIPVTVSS VL: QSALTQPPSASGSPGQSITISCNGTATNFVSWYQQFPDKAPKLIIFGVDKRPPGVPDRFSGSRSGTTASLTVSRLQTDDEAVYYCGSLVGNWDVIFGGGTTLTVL ? 0.012
